This listing pairs molecules with measured IC50.
# targetDesc: Histone deacetylase
# assayRemarks: Concentration required to inhibit human Histone deacetylase (HDAC) enzyme by 50%
# Format: protein assay

Worked cases, answers included:
CONC(=O)CCCCCNC(=O)c1ccccc1 ... > 10 µM
CN(C)c1ccc(C(=O)NCCCCC(=O)NO)cc1 ... > 10 µM

For the molecule shown here, NNC(=O)CCCCCNC(=O)c1ccccc1 , give the reported IC50. > 10 µM
